Numbers sourced from patent US8202902B2.

Entries with their measured IC50, system human XIAP protein (residues 120-356) (Homo sapiens, UniProt P98170):
property-label: IC50

{"molecule": "CN[C@@H](C)C(=O)N[C@H]1CN(Cc2ccc(CN3CC[C@H]4CC[C@@H](C(=O)NC(c5ccccc5)c5ccccc5)N4C(=O)[C@@H](NC(=O)[C@H](C)NC)C3)cc2)CC[C@H]2CC[C@@H](C(=O)NC(c3ccccc3)c3ccccc3)N2C1=O", "system": "human XIAP protein (residues 120-356) (Homo sapiens, UniProt P98170)", "observed-result": "< 100 nM"}
{"molecule": "CN[C@@H](C)C(=O)N[C@H]1CCCC[C@H]2CC[C@@H](C(=O)N[C@@H](c3ccccc3)c3ccc(CCCNC(=S)NCCCc4ccc([C@@H](NC(=O)[C@@H]5CC[C@@H]6CCCC[C@H](NC(=O)[C@@H](C)NC)C(=O)N65)c5ccccc5)cc4)cc3)N2C1=O", "system": "human XIAP protein (residues 120-356) (Homo sapiens, UniProt P98170)", "observed-result": "< 100 nM"}
{"molecule": "CN[C@@H](C)C(=O)N[C@H]1CCCC[C@H]2CC[C@@H](C(=O)N[C@@H](c3ccccc3)c3ccc(CCCn4cc(COCc5cn(CCCc6ccc([C@@H](NC(=O)[C@@H]7CC[C@@H]8CCCC[C@H](NC(=O)[C@H](C)NC)C(=O)N87)c7ccccc7)cc6)nn5)nn4)cc3)N2C1=O", "system": "human XIAP protein (residues 120-356) (Homo sapiens, UniProt P98170)", "observed-result": "< 10 nM"}
{"molecule": "CN[C@@H](C)C(=O)N[C@H]1CCCC[C@H]2CC[C@@H](C(=O)N[C@@H](c3ccccc3)c3cn(CCCCCOCCCCn4cc([C@@H](NC(=O)[C@@H]5CC[C@@H]6CCCC[C@H](NC(=O)[C@H](C)NC)C(=O)N65)c5ccccc5)nn4)nn3)N2C1=O", "system": "human XIAP protein (residues 120-356) (Homo sapiens, UniProt P98170)", "observed-result": "< 100 nM"}
{"molecule": "CC(=O)NC(Cc1c[nH]c2ccccc12)C(=O)NC1CCCCC2CCC(C(=O)NC(c3ccccc3)c3cn(CCCCc4ccc(CCCCn5cc(C(NC(=O)C6CCC7CCCCC(NC(=O)C(Cc8c[nH]c9ccccc89)NC(C)=O)C(=O)N76)c6ccccc6)nn5)cc4)nn3)N2C1=O (stereo not shown)", "system": "human XIAP protein (residues 120-356) (Homo sapiens, UniProt P98170)", "observed-result": "> 10000 nM"}
{"molecule": "CN[C@@H](C)C(=O)N[C@H]1CCCC[C@H]2CC[C@@H](C(=O)N[C@@H](c3ccc(F)cc3)c3cn(CCCCc4ccc(CCCCn5cc([C@@H](NC(=O)[C@@H]6CC[C@@H]7CCCC[C@H](NC(=O)[C@H](C)NC)C(=O)N76)c6ccc(F)cc6)nn5)cc4)nn3)N2C1=O", "system": "human XIAP protein (residues 120-356) (Homo sapiens, UniProt P98170)", "observed-result": "< 100 nM"}
{"molecule": "CNC(Cc1c[nH]c2ccccc12)C(=O)NC1CCCCC2CCC(C(=O)NC(c3ccccc3)c3cn(CCCCc4ccc(CCCCn5cc(C(NC(=O)C6CCC7CCCCC(NC(=O)C(Cc8c[nH]c9ccccc89)NC)C(=O)N76)c6ccccc6)nn5)cc4)nn3)N2C1=O (stereo not shown)", "system": "human XIAP protein (residues 120-356) (Homo sapiens, UniProt P98170)", "observed-result": "> 10000 nM"}
{"molecule": "CN[C@@H](C)C(=O)N[C@H]1CCCC[C@H]2CC[C@@H](C(=O)N[C@@H](c3ccccc3)c3cn(CCOCCOCCn4cc([C@@H](NC(=O)[C@@H]5CC[C@@H]6CCCC[C@H](NC(=O)[C@H](C)NC)C(=O)N65)c5ccccc5)nn4)nn3)N2C1=O", "system": "human XIAP protein (residues 120-356) (Homo sapiens, UniProt P98170)", "observed-result": "< 10 nM"}
{"molecule": "CN[C@@H](C)C(=O)N[C@H]1CCCC[C@H]2CC[C@@H](C(=O)N[C@@H](c3ccccc3)c3ccc(CCCCNC(=O)NCCCCc4ccc([C@@H](NC(=O)[C@@H]5CC[C@@H]6CCCC[C@H](NC(=O)[C@H](C)NC)C(=O)N65)c5ccccc5)cc4)cc3)N2C1=O", "system": "human XIAP protein (residues 120-356) (Homo sapiens, UniProt P98170)", "observed-result": "< 100 nM"}
{"molecule": "CN[C@@H](C)C(=O)N[C@H]1CCCC[C@H]2CC[C@@H](C(=O)N[C@@H](c3ccc(F)cc3)c3cn(CCN4CCN(CCn5cc([C@@H](NC(=O)[C@@H]6CC[C@@H]7CCCC[C@H](NC(=O)[C@H](C)NC)C(=O)N76)c6ccc(F)cc6)nn5)CC4)nn3)N2C1=O", "system": "human XIAP protein (residues 120-356) (Homo sapiens, UniProt P98170)", "observed-result": "< 100 nM"}
